Experiment: logP by HPLC on reversed-phase column (C 18), EEC Directive 79/831 Annex V.A8
Assay type: physicochemical
Settings: C 18, 40° C., 0.1% aqueous formic acid and acetonitrile
Value Kind: logPa

CCN(C)C=Nc1cc(C)c(Oc2ccc(C)c(Cl)n2)cc1C : 2.01
Cc1cc(Oc2ccnc(Cl)c2)c(C)cc1N=CN1CCCCC1 : 1.66
CCN(C)C=Nc1cc(C)c(Oc2ncc(C(F)(F)F)cc2Cl)cc1C : 2.15
CCN(C)C=Nc1ccc(Oc2ncc(C(F)(F)F)cc2Cl)cc1C : 2.21
Cc1cc(Oc2cc(Cl)cc(C(C)C)n2)c(C)cc1N=CN(C)C(C)C : 2.34
Cc1cc(Oc2ccc(C)c(Cl)n2)c(C)cc1N=CN1CCCC1 : 2.05
Cc1cc(Oc2cccc(Br)n2)c(C)cc1N=CN1CCCCC1 : 2.06
Cc1cc(Oc2ncc(C(F)(F)F)cc2Cl)c(C)cc1N=CN(C)C(C)C : 2.29
Cc1cc(Oc2cc(C(F)(F)F)cc(Cl)n2)c(C)cc1N=CN(C)C(C)C : 2.52
CCN(C)C=Nc1cc(C)c(Oc2cc(Cl)ccn2)cc1C : 1.75
Cc1cc(Oc2cc(Cl)cc(C(C)C)n2)c(C)cc1N=CN1CCCCC1 : 2.34

* * *

Experiment: logP by HPLC on reversed-phase column (C 18), EEC Directive 79/831 Annex V.A8
Type: physicochemical
Conditions: C 18, 40° C., 0.1% aqueous formic acid and acetonitrile
Value Kind: logPa

Sample records with logPa:
CCCN(C)C=Nc1cc(C)c(Oc2cc(Cl)cc(C(C)C)n2)cc1C [Example 54] : 2.35
CCN(C)C=Nc1cc(C)c(Oc2ncc(Cl)cc2Cl)cc1C [Example 28] : 2.00
Cc1cc(Oc2cc(C(F)(F)F)cc(Cl)n2)ccc1N=CN(C)C(C)C [Example 7] : 2.22
CCN(C)C=Nc1cc(C)c(Oc2cc(C(F)(F)F)cc(C)n2)cc1C [Example 25] : 2.19
CCCc1cc(CCC)nc(Oc2cc(C)c(N=CN(C)CC)cc2C)c1 [Example 30] : 2.97

(a) CCN(C)C=Nc1ccc(Oc2cc(Cl)ccn2)cc1C [Example 3]
(b) Cc1cc(Oc2ccc(C)c(Cl)n2)c(C)cc1N=CN1CCCCC1 [Example 50]
Of a and b , whose reported logPa is the larger number? Kindly give the label for the entry you pick. b

(A) Cc1cc(Oc2ccc(C#N)cn2)c(C)cc1N=CN1CCCCC1 [Example 38]
(B) CCN(C)C=Nc1cc(C)c(Oc2cccc(-c3ccc(Cl)cc3)n2)cc1C [Example 45]
I'm curious whether A or B has the smaller logPa number. Which is it? Kindly give the label for the entry you pick. A
(A: 1.58, B: 2.66)

(a) CCN(C)C=Nc1ccc(Oc2ccc(Cl)cn2)cc1C [Example 5]
(b) CCN(C)C=Nc1cc(C)c(Oc2ccc(C(F)(F)F)c(Cl)n2)cc1C [Example 6]
I'm curious whether a or b has the smaller logPa number. Which is it? Kindly give the label for the entry you pick. a

(1) CCN(C)C=Nc1cc(C)c(Oc2ccnc(Cl)c2)cc1C [Example 69]
(2) Cc1cc(Oc2cc(Cl)cc(C(C)C)n2)c(C)cc1N=CN1CCCC1 [Example 55]
I'm curious whether 1 or 2 has the smaller logPa number. Which is it? Kindly give the label for the entry you pick. 1
(1: 1.45, 2: 2.22)

* * *

Experiment: logP by HPLC on reversed-phase column (C 18), EEC Directive 79/831 Annex V.A8
Type: physicochemical
Settings: C 18, 40° C., 0.1% aqueous formic acid and acetonitrile
Value Kind: logPa

CCCN(C)C=Nc1cc(C)c(Oc2cc(C(F)(F)F)c(F)c(F)n2)cc1C [Example 63] : 2.48

(1) CCc1nccc(Oc2cc(C)c(N=CN3CCCCC3)cc2C)c1Cl [Example 75]
(2) CCN(C=Nc1cc(C)c(Oc2cc(C(F)(F)F)cc(Cl)n2)cc1C)CC [Example 18]
Of 1 and 2 , whose reported logPa is the larger number? Kindly give the label for the entry you pick. 2
(2: 2.59, 1: 1.56)

(P) CCN(C)C=Nc1cc(C)c(Oc2cccc(C(F)(F)F)n2)cc1C [Example 61]
(Q) CCN(C)C=Nc1cc(C(C)C)c(Oc2cc(C(F)(F)F)cc(Cl)n2)cc1C [Example 24]
Of P and Q , whose reported logPa is the larger number? Kindly give the label for the entry you pick. Q
(Q: 2.87, P: 1.98)

* * *

Experiment: logP by HPLC on reversed-phase column (C 18), EEC Directive 79/831 Annex V.A8
Format: physicochemical
Settings: C 18, 40° C., 0.1% aqueous formic acid and acetonitrile
Value Kind: logPa

CCN(C)C=Nc1cc(C)c(Oc2cc(C(F)(F)F)c(F)c(F)n2)cc1C : 2.31
CCc1cc(Cl)cc(Oc2cc(C)c(N=CN3CCCC3)cc2C)n1 : 1.95
Cc1cc(Oc2ccnc(C(F)(F)F)c2)c(C)cc1N=CN1CCCCC1 : 1.78
CCN(C)C=Nc1ccc(Oc2cc(C(F)(F)F)cc(Cl)n2)cc1C : 2.20
CCN(C)C=Nc1ccc(Oc2ccc(I)cn2)cc1C : 1.87
Cc1cc(Oc2cccc(Cl)n2)c(C)cc1N=CN1CCCCC1 : 1.96
CCN(C)C=Nc1ccc(Oc2ccc(C(F)(F)F)cn2)cc1C : 1.79
CCCN(C)C=Nc1cc(C)c(Oc2ccnc(CC)c2Cl)cc1C : 1.59
CCN(C)C=Nc1cc(C)c(Oc2cc(Cl)cc(C(C)C)n2)cc1C : 2.18
CCCN(C)C=Nc1cc(C)c(Oc2ccc(C#N)cn2)cc1C : 1.63
